Sourced from patent US10611762B2

assay: Solubility measurement in various solvents at 50 ± 1° C. (Procedure 2); assay type: physicochemical; conditions: Acetone/water (1:4), 50 °C, aqueous with cosolvent or surfactant or cyclodextrin, thermodynamic from solid, Acetone/water (1:4); read-out: Solubility at 50 ± 1° C.
endpointName: solubility

Task: Look at this molecule and give its reported solubility. C=CC(=O)NCc1cc2c(cn1)CN(c1c(F)c(OC)cc(OC)c1F)C(=O)C21CC1 [Compound 1 Form I]
Output: 570 µg/mL

---

assay: Solubility measurement in various solvents at 23 ± 1° C. (Procedure 1); type: physicochemical; conditions: EtOH, 23 °C, organic solvent or mixture, thermodynamic from solid, EtOH; read-out: Solubility at 23 ± 1° C.
endpointName: solubility (µg/mL)
Report only the number, with the unit µg/mL understood.

Task: Look at this molecule and give its reported solubility. C=CC(=O)NCc1cc2c(cn1)CN(c1c(F)c(OC)cc(OC)c1F)C(=O)C21CC1 [Compound 1 Form I]
Output: 2010
